Assay: Plasma pharmacokinetics in rats after a 30-min intravenous infusion of Kang-Ai injection
Type: in vivo, Sprague–Dawley rats
Conditions: rat, in vivo, iv
REPORTED METRIC: t1/2 (h)

>>> measured_value("O=C1CCC[C@@H]2[C@H]3CCCN4CCC[C@@](O)(CN12)[C@@H]34")
0.82
>>> measured_value("O=c1cccc([C@@H]2C[C@H](CO)[C@H]3CCCCN3C2)[nH]1")
2.32
>>> measured_value("O=C1C=CC[C@@H]2[C@H]3C[C@H](O)CN4CCC[C@@H](CN12)[C@@H]34 [Compound A6, 9α-hydroxysophocarpine]")
2.16

---

Target: UGT2B7 (Homo sapiens)
Sequence (P16662 24-529): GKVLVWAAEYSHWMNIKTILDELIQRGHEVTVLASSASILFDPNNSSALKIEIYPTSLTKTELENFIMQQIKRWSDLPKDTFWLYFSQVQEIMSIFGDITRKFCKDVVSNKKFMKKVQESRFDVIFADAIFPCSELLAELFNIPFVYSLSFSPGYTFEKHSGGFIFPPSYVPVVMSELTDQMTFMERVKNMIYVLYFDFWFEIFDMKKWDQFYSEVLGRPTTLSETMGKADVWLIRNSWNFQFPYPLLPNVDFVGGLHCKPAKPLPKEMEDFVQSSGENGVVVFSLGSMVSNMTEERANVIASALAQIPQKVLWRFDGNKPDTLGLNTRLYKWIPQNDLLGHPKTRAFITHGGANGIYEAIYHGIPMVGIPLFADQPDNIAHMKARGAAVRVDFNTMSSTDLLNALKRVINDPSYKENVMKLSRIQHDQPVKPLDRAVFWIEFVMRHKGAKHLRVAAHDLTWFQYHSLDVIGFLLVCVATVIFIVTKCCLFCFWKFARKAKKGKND
Assay: Inhibition of expressed UGT2B7 (probe 4-MU)
Format: in vitro ADME
Details: recombinant isozyme; mean ± SD of triplicate; unit not given (IC50 classes in μM); read-out: IC50 towards UGT2B7
A collection of compounds and their measured IC50
REPORTED METRIC: IC50

>>> measured_value("CC(C)=CCC[C@](C)(O[C@@H]1O[C@H](CO)[C@@H](O)[C@H](O)[C@H]1O)[C@H]1CC[C@]2(C)[C@@H]1[C@H](O)C[C@@H]1[C@@]3(C)CC[C@H](O)C(C)(C)[C@@H]3[C@@H](O[C@@H]3O[C@H](CO)[C@@H](O)[C@H](O)[C@H]3O)C[C@]12C [Compound C6, Ginsenoside Rg1]")
"> 100 µM"
>>> measured_value("CC(C)=CCC[C@](C)(O[C@@H]1O[C@H](CO[C@@H]2O[C@@H](CO)[C@H](O)[C@H]2O)[C@@H](O)[C@H](O)[C@H]1O)[C@H]1CC[C@]2(C)[C@@H]1[C@H](O)C[C@@H]1[C@@]3(C)CC[C@H](O[C@@H]4O[C@H](CO)[C@@H](O)[C@H](O)[C@H]4O[C@@H]4O[C@H](CO)[C@@H](O)[C@H](O)[C@H]4O)C(C)(C)[C@@H]3CC[C@]12C [Compound D3, Ginsenoside Rc]")
"> 100 µM"
>>> measured_value("CC(C)=CCC[C@](C)(O[C@@H]1O[C@H](CO)[C@@H](O)[C@H](O)[C@H]1O)[C@H]1CC[C@]2(C)[C@@H]1[C@H](O)C[C@@H]1[C@@]3(C)CC[C@H](O)C(C)(C)[C@@H]3[C@@H](O[C@@H]3O[C@H](CO)[C@@H](O)[C@H](O)[C@H]3O[C@@H]3O[C@@H](C)[C@H](O)[C@@H](O)[C@H]3O)C[C@]12C [Compound C9, Ginsenoside Re]")
"> 100 µM"
